system: corn (Zea mays); test: Test A postemergence, visual injury rating; format: in vivo; conditions: 125 g ai/ha, 0 to 100 scale, 0 is no effect, 100 is complete control, approximately 10 days
Use 20 as the dividing line for Corn plant response rating, with the line itself on the Criterion met side and lower values as Criterion not met.

CCOCc1c(Br)cccc1Oc1ncc(Cl)cn1 [Compound 106]; Criterion not met
CC(=NOCCC(F)(F)F)c1c(Br)cccc1Oc1ncc(Cl)cn1 [Compound 98]; Criterion not met
O=C(OCCC1CC1)c1c(Br)cccc1Oc1ncc(Cl)cn1 [Compound 123]; Criterion not met
O=C(OCCC(F)(F)F)c1cc(Br)ccc1Oc1ncc(Cl)cn1 [Compound 94]; Criterion not met
CCCCc1c(C#N)cccc1Oc1ncc(Cl)cn1 [Compound 86]; Criterion met
N#Cc1cccc(Oc2ncc(Cl)cn2)c1NCCCC(F)(F)F [Compound 146]; Criterion met
CC(C)Oc1cccc(Oc2ncc(Cl)cn2)c1C(=O)OCCC(F)(F)F [Compound 115]; Criterion not met

----------
system: barnyardgrass (Echinochloa crus-galli); test: Test C postemergence, plant response rating; format: in vivo; conditions: 125 g ai/ha, scale 0 to 100 (0 no effect, 100 complete control)
readoutLabel: Barnyardgrass plant response rating

O=C(CCC(F)(F)F)c1c(Br)cccc1Oc1ncc(Cl)cn1; 20
O=C(CCC(F)(F)C(F)(F)F)c1c(Br)cccc1Oc1ncc(Cl)cn1; 30
O=C(CCCC(F)(F)F)c1c(Cl)cccc1Oc1ncc(Cl)cn1; 20
N#CC(CCCC(F)(F)F)c1ccccc1Oc1ncc(Cl)cn1 (centres unmarked); 10
O=C(OCC(F)(F)F)c1c(Br)cccc1Oc1ncc(Cl)cn1; 15

----------
Collected Foxtail, Giant plant response rating values appear next to each entry.
test system: giant foxtail (Setaria faberii); assay: Test A postemergence, visual injury rating; type: in vivo; details: 31 g ai/ha, 0 to 100 scale, 0 is no effect, 100 is complete control, approximately 10 days
readoutLabel: Foxtail, Giant plant response rating

CCCCCc1c(C#N)cccc1Oc1ncc(Cl)cn1 [Compound 87]; 40
CC(=NOCCC(F)(F)F)c1c(Br)cccc1Oc1ncc(Cl)cn1 [Compound 98]; 0
FC(F)(F)CCOCc1c(Br)cccc1Oc1ncc(Cl)cn1 [Compound 66]; 30
O=C(OCCC(F)(F)F)c1cc(Cl)ccc1Oc1ncc(Cl)cn1 [Compound 88]; 0
N#Cc1cccc(Oc2ncc(Cl)cn2)c1COCCCC(F)(F)F [Compound 81]; 20
CCCCOC(=O)c1c(Br)cccc1Oc1ncc(Cl)cn1 [Compound 100]; 20
FC(F)(F)CCCOCc1c(Br)cccc1Oc1ncc(Cl)cn1 [Compound 74]; 20
CCCSC(=O)c1c(Br)cccc1Oc1ncc(Cl)cn1 [Compound 70]; 0
O=C(OCC(Cl)(Cl)Cl)c1c(Br)cccc1Oc1ncc(Cl)cn1 [Compound 45]; 20
C=CC(C)COC(=O)c1c(Br)cccc1Oc1ncc(Cl)cn1 (stereo not shown) [Compound 37]; 0

----------
test system: kochia (Kochia scoparia); experiment: Test A preemergence, visual injury rating; type: in vivo; details: 500 g ai/ha, 0 to 100 scale (0 no effect, 100 complete control)
readoutLabel: Kochia plant response rating

CCCCC(=O)c1c(Oc2ncc(Cl)cn2)cccc1C(F)(F)F; 100
O=C(OCC1CCC1)c1c(Br)cccc1Oc1ncc(Cl)cn1; 0
O=C(OCCC(F)(F)F)c1ccccc1Oc1ncc(Cl)cn1; 0
O=Cc1c(Cl)cccc1Oc1ncc(Cl)cn1; 0
O=C(OCC1CC1(F)F)c1c(Br)cccc1Oc1ncc(Cl)cn1 (centres unmarked); 100
N#CCOC(=O)c1c(C#N)cccc1Oc1ncc(Cl)cn1; 0
CCCC(=O)c1c(Br)cccc1Oc1ncc(Cl)cn1; 100
O=C(OCCC(F)(F)F)c1c(F)cccc1Oc1ncc(Br)cn1; 30
N#CCOC(=O)c1c(Br)cccc1Oc1ncc(Cl)cn1; 90
CCC(C)OC(=O)c1c(Br)cccc1Oc1ncc(Cl)cn1 (centres unmarked); 0
N#Cc1cnc(Oc2cccc(Br)c2C(=O)OCC(F)(F)F)nc1; 0
